# study-target: PIM3 (human)
# test-details: radiometric filter-binding kinase assay, Kinase HotSpot
# condition-summary: compound 0.5 µM; ATP 10 µM
Provide the reported residual activity of each item.
Answers are plain numbers, in %.

Below, each entry is followed by its recorded residual activity result.
smiles	residual activity (%)
CCc1nc(-c2ccc(OC)cc2)[nH]c1-c1ccncc1	112
N#C/C(=C1/Nc2ccccc2S1)c1ccnc(NCCc2cccnc2)n1	3.74
N#CCCc1ccc2c(c1)-c1[nH]c3ccc([N+](=O)[O-])cc3c1CC(=O)N2	70.9

// next item, residual activity requested
Inquiry: Notebook: pull reported residual activity for PIM3 (human), entry COc1cc2ncnc(Nc3ccc(O)c(Br)c3)c2cc1OC
Reply text: 73.3

====

Provide the reported residual activity of each item.
# study-target: NEK1 (human)
# test-details: radiometric filter-binding kinase assay, Kinase HotSpot
# condition-summary: compound 0.5 µM; ATP 10 µM
One number for each entry, in %.

smiles	unit-label	residual activity
CCCCc1c(-c2ccc(O)cc2)[nH]c2nccnc12	%	92.2
CCc1nc(-c2ccc(OC)cc2)[nH]c1-c1ccncc1	%	98.9
O=C1NC(=O)c2cc(Nc3ccc(F)cc3)c(Nc3ccc(F)cc3)cc21	%	88
COc1cc2ncnc(Nc3ccc(O)c(Br)c3)c2cc1OC	%	90.5
N#Cc1c(NC(=O)c2cccc3ccccc23)sc2c1CCCC2	%	93.4

State recorded residual activity for all listed compounds.
1. CCOc1cc2ncnc(Nc3cccc(Br)c3)c2cc1OCC
2. O=c1c2ccccc2[nH]c(=S)n1CCN1CCC(=C(c2ccc(F)cc2)c2ccc(F)cc2)CC1

Reply text:
1. 99.2
2. 109

====

Provide the reported residual activity of each item.
# study-target: UniProt:O75914
# Sequence (O75914 whole entry, looked up): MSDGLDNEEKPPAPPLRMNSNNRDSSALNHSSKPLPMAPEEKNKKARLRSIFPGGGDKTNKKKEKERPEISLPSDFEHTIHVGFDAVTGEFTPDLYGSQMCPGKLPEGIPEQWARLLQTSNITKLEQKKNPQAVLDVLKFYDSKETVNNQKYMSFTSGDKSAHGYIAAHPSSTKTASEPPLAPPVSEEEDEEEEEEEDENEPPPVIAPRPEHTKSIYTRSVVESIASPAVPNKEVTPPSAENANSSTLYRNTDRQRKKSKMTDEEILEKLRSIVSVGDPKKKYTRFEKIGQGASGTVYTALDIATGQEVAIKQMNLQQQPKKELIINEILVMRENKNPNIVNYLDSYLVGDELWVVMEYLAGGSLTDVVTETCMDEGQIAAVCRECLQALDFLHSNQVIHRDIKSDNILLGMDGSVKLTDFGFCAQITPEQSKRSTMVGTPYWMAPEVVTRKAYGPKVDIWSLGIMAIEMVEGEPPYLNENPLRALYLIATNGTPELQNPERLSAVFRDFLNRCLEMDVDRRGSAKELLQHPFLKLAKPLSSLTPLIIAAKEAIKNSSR
# test-details: radiometric filter-binding kinase assay, Kinase HotSpot
# condition-summary: compound 0.5 µM; ATP 10 µM
Answers are plain numbers, in %.

smiles	study-target	unit-label	numeric-readout
N#CCCc1ccc2c(c1)-c1[nH]c3ccc([N+](=O)[O-])cc3c1CC(=O)N2	UniProt:O75914	%	97.1
O=c1cc(N2CCOCC2)oc2c(-c3ccccc3)cccc12	UniProt:O75914	%	104

State recorded residual activity for all listed molecules.
1. FC(F)(F)c1ccc(/C=C/c2nc(COc3ccc(CCCCn4ccnn4)cc3)co2)cc1
2. COc1cc2c(Nc3ccc(Br)cc3F)ncnc2cc1OCC1CCN(C)CC1

Reply text:
1. 101
2. 103

====

# study-target: IKBKB (human) (UniProt O14920)
# Sequence (O14920 whole entry, looked up): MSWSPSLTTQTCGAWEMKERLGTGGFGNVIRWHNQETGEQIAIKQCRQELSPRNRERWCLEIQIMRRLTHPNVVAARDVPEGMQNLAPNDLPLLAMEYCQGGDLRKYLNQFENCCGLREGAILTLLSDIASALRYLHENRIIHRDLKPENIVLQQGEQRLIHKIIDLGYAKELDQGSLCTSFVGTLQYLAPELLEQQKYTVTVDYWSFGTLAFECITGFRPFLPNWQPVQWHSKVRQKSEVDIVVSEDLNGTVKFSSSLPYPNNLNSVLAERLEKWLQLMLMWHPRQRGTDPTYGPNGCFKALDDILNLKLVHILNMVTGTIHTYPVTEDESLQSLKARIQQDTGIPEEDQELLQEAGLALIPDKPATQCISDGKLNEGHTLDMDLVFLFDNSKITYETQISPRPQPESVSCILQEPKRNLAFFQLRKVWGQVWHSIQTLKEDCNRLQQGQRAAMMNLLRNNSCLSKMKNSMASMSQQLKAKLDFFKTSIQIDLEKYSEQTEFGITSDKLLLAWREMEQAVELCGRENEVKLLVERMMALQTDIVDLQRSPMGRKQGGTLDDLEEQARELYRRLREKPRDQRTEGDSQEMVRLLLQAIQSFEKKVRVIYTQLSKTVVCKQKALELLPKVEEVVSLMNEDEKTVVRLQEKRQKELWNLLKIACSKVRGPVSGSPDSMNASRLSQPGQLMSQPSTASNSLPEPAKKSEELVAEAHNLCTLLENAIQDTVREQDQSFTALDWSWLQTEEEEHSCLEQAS
# test-details: radiometric filter-binding kinase assay, Kinase HotSpot
# condition-summary: compound 0.5 µM; ATP 10 µM
Provide the reported residual activity of each item.
State the result as a value with its unit after it.

Below, each entry is followed by its recorded residual activity result.
smiles	study-target	measured-attribute	result
Cc1cc(Nc2nc(-c3ccccc3)nc3ccccc23)n[nH]1	IKBKB (human) (UniProt O14920)	residual activity	69.8%
COc1cc2ncnc(Nc3ccc(O)c(Br)c3)c2cc1OC	IKBKB (human) (UniProt O14920)	residual activity	88.1%
O=S(=O)(NCCNC/C=C/c1ccc(Br)cc1)c1cccc2cnccc12	IKBKB (human) (UniProt O14920)	residual activity	89.5%
O=C(O)c1ccc2c3c1cccc3c(=O)n1c3ccccc3nc21	IKBKB (human) (UniProt O14920)	residual activity	109%
N#CCCc1ccc2c(c1)-c1[nH]c3ccc([N+](=O)[O-])cc3c1CC(=O)N2	IKBKB (human) (UniProt O14920)	residual activity	96.3%

// next item, residual activity requested
Inquiry: Form field: reported residual activity of O=c1c2ccccc2[nH]c(=S)n1CCN1CCC(=C(c2ccc(F)cc2)c2ccc(F)cc2)CC1
Reply text: 99.5%

====

# study-target: CSNK2A1 (human)
# test-details: radiometric filter-binding kinase assay, Kinase HotSpot
# condition-summary: compound 0.5 µM; ATP 10 µM
Provide the reported residual activity of each item.
Answers are plain numbers, in %.

smiles	study-target	unit-label	residual activity
O=C(c1ccccc1)c1ccc(N2CCOCC2)cc1O	CSNK2A1 (human)	%	91.1

State recorded residual activity for all listed compounds.
1. O=c1c2ccccc2[nH]c(=S)n1CCN1CCC(=C(c2ccc(F)cc2)c2ccc(F)cc2)CC1
2. N#Cc1c(NC(=O)c2cccc3ccccc23)sc2c1CCCC2
3. N#CCCc1ccc2c(c1)-c1[nH]c3ccc([N+](=O)[O-])cc3c1CC(=O)N2

Reply text:
[97.9, 101, 91.2]

State recorded residual activity for all listed compounds.
1. CCCCc1c(-c2ccc(O)cc2)[nH]c2nccnc12
2. O=c1cc(N2CCOCC2)oc2c(-c3ccccc3)cccc12
3. Cn1cc(/C=C2\C(=O)Nc3ccc(S(N)(=O)=O)cc32)c2ccccc21
4. O=C1NC(=O)c2cc(Nc3ccc(F)cc3)c(Nc3ccc(F)cc3)cc21
5. O=c1[nH]c2ccccc2n1C1CCN(Cc2ccc(-c3nc4cc5[nH]cnc5cc4nc3-c3ccccc3)cc2)CC1

Reply text:
95.9
64.8
84.7
95.7
94.3

Inquiry: Form field: reported residual activity of COc1cc2c(cc1OC)-c1[nH]nc(Nc3cccc(F)c3)c1C2
Reply text: 96.6

====

# study-target: PRKACA (human) (UniProt P17612)
# test-details: radiometric filter-binding kinase assay, Kinase HotSpot
# condition-summary: compound 0.5 µM; ATP 10 µM
measured-attribute: residual activity (%)
One number for each entry, in %.

smiles	study-target	residual activity, %
O=C(c1ccccc1)c1ccc(N2CCOCC2)cc1O	PRKACA (human) (UniProt P17612)	98.3
O=c1cc(N2CCOCC2)oc2c(-c3ccccc3)cccc12	PRKACA (human) (UniProt P17612)	98.3

State recorded residual activity for all listed compounds.
1. c1ccc(-c2cnc(Nc3ccc(OCCN4CCCC4)cc3)s2)cc1
2. N#Cc1c(NC(=O)c2cccc3ccccc23)sc2c1CCCC2
3. COc1cc2c(N3CCN(C(=O)Nc4ccc(OC(C)C)cc4)CC3)ncnc2cc1OCCCN1CCCCC1
4. CN[C@@H]1C[C@H]2O[C@@](C)([C@@H]1OC)n1c3ccccc3c3c4c(c5c6ccccc6n2c5c31)C(=O)NC4
5. FC(F)(F)c1ccc(/C=C/c2nc(COc3ccc(CCCCn4ccnn4)cc3)co2)cc1
6. Cn1cc(/C=C2\C(=O)Nc3ccc(S(N)(=O)=O)cc32)c2ccccc21

Reply text:
1: 102; 2: 102; 3: 103; 4: 1.93; 5: 101; 6: 104

====

Provide the reported residual activity of each item.
# study-target: MAPK3 (human)
# test-details: radiometric filter-binding kinase assay, Kinase HotSpot
# condition-summary: compound 0.5 µM; ATP 10 µM
Answers are plain numbers, in %.

smiles	study-target	unit-label	numeric-readout
O=c1c(-c2ccc(F)cc2)c(-c2ccncc2)[nH]n1-c1ccc(Cl)cc1	MAPK3 (human)	%	103
O=C(O)c1ccc2c3c1cccc3c(=O)n1c3ccccc3nc21	MAPK3 (human)	%	102
N#Cc1c(NC(=O)c2cccc3ccccc23)sc2c1CCCC2	MAPK3 (human)	%	97.1
O=C1NC(=O)c2c1c1c3ccccc3[nH]c1c1[nH]c3cc(Br)ccc3c21	MAPK3 (human)	%	108

State recorded residual activity for all listed compounds.
1. O=S(=O)(NCCNC/C=C/c1ccc(Br)cc1)c1cccc2cnccc12
2. N/C(=N\N=C/c1ccc(-c2cccc([N+](=O)[O-])c2)o1)N[N+](=O)[O-]
3. O=C1NC(=O)c2cc(Nc3ccc(F)cc3)c(Nc3ccc(F)cc3)cc21
4. CCCCc1c(-c2ccc(O)cc2)[nH]c2nccnc12
5. COc1cc2c(N3CCN(C(=O)Nc4ccc(OC(C)C)cc4)CC3)ncnc2cc1OCCCN1CCCCC1

Reply text:
1: 84.8; 2: 88.4; 3: 86.1; 4: 101; 5: 106

====

# study-target: CDK9 CCNK (human) (UniProt O75909+P50750)
# Sequence (O75909 whole entry, looked up): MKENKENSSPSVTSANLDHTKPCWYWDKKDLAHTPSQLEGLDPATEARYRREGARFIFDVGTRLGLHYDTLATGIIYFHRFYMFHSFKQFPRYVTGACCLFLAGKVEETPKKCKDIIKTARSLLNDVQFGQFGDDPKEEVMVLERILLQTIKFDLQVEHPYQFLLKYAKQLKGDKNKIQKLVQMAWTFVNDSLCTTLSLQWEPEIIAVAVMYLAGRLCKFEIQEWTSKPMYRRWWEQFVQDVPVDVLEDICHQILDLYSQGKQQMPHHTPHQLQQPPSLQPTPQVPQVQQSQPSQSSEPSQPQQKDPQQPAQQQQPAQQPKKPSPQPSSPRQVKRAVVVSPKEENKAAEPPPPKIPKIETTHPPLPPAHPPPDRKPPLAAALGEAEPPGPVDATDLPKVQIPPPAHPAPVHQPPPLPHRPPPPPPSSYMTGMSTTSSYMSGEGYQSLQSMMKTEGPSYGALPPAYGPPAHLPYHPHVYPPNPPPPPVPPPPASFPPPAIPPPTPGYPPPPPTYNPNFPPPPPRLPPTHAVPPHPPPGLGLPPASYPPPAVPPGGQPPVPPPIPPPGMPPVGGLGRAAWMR
# Sequence (P50750 whole entry, looked up): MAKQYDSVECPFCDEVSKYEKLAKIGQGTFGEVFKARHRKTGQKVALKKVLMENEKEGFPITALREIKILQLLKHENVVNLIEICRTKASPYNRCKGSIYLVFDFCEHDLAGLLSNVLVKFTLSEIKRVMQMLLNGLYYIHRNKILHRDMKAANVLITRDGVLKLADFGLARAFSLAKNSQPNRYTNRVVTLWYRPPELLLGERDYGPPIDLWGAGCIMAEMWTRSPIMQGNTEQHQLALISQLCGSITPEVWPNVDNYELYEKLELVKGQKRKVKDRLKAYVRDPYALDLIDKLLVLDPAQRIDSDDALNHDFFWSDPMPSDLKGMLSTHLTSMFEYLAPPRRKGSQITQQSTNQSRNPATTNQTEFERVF
# test-details: radiometric filter-binding kinase assay, Kinase HotSpot
# condition-summary: compound 0.5 µM; ATP 10 µM
measured-attribute: residual activity (%)
One number for each entry, in %.

smiles	study-target	residual activity (%)
N#Cc1c(NC(=O)c2cccc3ccccc23)sc2c1CCCC2	CDK9 CCNK (human) (UniProt O75909+P50750)	90.5
COc1cc2ncnc(Nc3ccc(O)c(Br)c3)c2cc1OC	CDK9 CCNK (human) (UniProt O75909+P50750)	91.1
COc1cc2c(cc1OC)-c1[nH]nc(Nc3cccc(F)c3)c1C2	CDK9 CCNK (human) (UniProt O75909+P50750)	91.9
Cc1cc(Nc2nc(-c3ccccc3)nc3ccccc23)n[nH]1	CDK9 CCNK (human) (UniProt O75909+P50750)	89.8

Inquiry: Form field: reported residual activity of O=C1NC(=O)c2cc(Nc3ccc(F)cc3)c(Nc3ccc(F)cc3)cc21
Reply text: 90.8
